What IC50 was measured for each of the following?
target: KCa1.1 (Homo sapiens); construct: expressed in transfected cells; host or cells: HEK; test: Potassium channels patch-clamp (QPatch), KCa1.1; type: cell-based
Sequence (Q12791 whole entry): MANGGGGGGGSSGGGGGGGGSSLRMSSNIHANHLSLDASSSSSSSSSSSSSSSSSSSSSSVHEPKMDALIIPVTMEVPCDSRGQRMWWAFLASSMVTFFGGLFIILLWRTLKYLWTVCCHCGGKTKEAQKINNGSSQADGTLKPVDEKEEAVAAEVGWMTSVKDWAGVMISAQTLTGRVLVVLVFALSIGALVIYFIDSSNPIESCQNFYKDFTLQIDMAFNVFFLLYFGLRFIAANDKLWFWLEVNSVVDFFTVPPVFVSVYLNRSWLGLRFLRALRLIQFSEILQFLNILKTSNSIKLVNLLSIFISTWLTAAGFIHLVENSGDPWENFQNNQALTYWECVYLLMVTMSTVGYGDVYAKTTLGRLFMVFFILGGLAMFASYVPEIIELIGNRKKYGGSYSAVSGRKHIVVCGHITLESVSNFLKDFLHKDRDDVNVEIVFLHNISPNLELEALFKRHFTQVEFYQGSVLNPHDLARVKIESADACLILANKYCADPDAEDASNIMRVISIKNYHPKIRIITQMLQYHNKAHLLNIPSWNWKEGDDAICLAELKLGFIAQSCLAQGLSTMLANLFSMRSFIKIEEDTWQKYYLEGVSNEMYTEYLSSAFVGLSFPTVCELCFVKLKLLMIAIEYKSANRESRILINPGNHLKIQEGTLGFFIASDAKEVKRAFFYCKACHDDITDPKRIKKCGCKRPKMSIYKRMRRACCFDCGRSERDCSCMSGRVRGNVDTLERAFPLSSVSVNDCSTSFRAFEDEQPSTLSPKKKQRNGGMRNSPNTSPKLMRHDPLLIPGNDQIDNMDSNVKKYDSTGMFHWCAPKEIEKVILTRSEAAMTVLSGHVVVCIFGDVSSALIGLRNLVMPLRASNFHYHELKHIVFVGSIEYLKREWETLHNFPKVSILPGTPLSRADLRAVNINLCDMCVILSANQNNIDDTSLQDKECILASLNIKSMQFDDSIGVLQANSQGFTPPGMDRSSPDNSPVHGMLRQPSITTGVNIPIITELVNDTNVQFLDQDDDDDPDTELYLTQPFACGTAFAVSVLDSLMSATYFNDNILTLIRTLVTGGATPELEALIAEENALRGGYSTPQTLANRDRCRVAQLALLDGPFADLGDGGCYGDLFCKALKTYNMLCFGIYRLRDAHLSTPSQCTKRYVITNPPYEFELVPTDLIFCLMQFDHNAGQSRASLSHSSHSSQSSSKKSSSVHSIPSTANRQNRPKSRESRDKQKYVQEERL

{"inputSmiles": "COC(=O)C1=C(C)NC(C)=C(C(=O)OC)C1c1ccc(F)c(C(F)(F)F)c1", "tgt": "KCa1.1 (Homo sapiens)", "IC50": "> 10 µM"}

Now consider a different compound.
Inquiry: Supply recorded IC50 for COC(=O)C1=CNC=C(C(=O)OC)C1c1ccc(F)c(C(F)(F)F)c1 here.
Reply text: > 10 µM

====

What pIC50 was measured for each of the following?
biological target: KCa3.1 channel (Homo sapiens); test: KCa3.1 patch-clamp (QPatch HTX automated and manual); type: cell-based; conditions: KCa3.1, Table 5
Answers are plain numbers, as −log10 of the molar value.

{"compound": "COC(=O)C1=CNC=C(C(=O)OC)C1c1cc(F)cc(C(F)(F)F)c1", "valueKind": "pIC50", "recordedResult": 8.35}

# batch size: 6; output pIC50 per entry
1. COC(=O)C1=C(C)NC(C)=C(C(=O)OC)C1c1ccc(F)c(C(F)(F)F)c1
2. COC(=O)C1=CNC=C(C(=O)OC)C1c1cc(F)c(F)c(C(F)(F)F)c1
3. COC(=O)C1=CNC=C(C(=O)OC)C1c1cccc(C(F)(F)F)c1
4. COC(=O)C1=CNC=C(C(=O)OC)C1c1ccc(F)c(C(F)(F)F)c1
5. COC(=O)C1=CNC=C(C(=O)OC)C1c1ccc(Cl)c(C(F)(F)F)c1
6. COC(=O)C1=CNC(C)=C(C(=O)OC)C1c1ccc(F)c(C(F)(F)F)c1 (stereo not shown)

Reply text:
1: 7.79; 2: 8.16; 3: 7.73; 4: 8.21; 5: 8.24; 6: 8.12
